Assay target: HLA-A*68:01
Assay remarks: IEDB peptide-MHC binding, cellular MHC/competitive/fluorescence; bounds were set here for any values at or beyond the usual limits of such assays
Measurement context: source organism: Mammarenavirus guanaritoense
Experimental endpoint: pIC50
pIC50 here is simply -log10 of the concentration when that concentration is written in mol/L.

Consider the sequence shown here: `TTSLFLHLV` What is its recorded pIC50? 4.95

---

Known pIC50 of a selection of sequences
Assay target: HLA-A*02:01
Assay remarks: IEDB peptide-MHC binding, purified MHC/competitive/radioactivity; bounds were set here for any values at or beyond the usual limits of such assays
Measurement context: source organism: Vaccinia virus WR
Please note pIC50 is a logarithmic value: minus log10 of concentration in mol/L. Answer with that number alone.

ILMDNKGLGV = 8.89
RVTTELNIV = 6.09
SMIGLCACV = 8.70
LINLVQYRIL = 5.65
SLNRTIVTKV = 7.17

Field request: pIC50 | item: `VMYAFTTPLI` 8.51

What about this sequence? `AVTLNRIKI` 5.94

How about this sequence: `GLIIISIFL` 7.14

`YTALHYYYL` ? 7.77

And then `ETIQKDINIT` , what is it? 5.90

Now the same for `GLYIPGTSV` 7.12

---

Assay target: HLA-A*68:02
Assay remarks: IEDB peptide-MHC binding, cellular MHC/competitive/fluorescence; bounds were set here for any values at or beyond the usual limits of such assays
Measurement context: source organism: Vaccinia virus WR
Reported values of IC50 for individual entries
Answer format: numeric, µM implied, no suffix.

Consider the worked cases shown below.
KLYIALCKV = 16.6
AVSVYGAIT = 6.28
LVQYRILPMI = 12.5
PVVYHDDDNT = 11.4
PLSINVSGV = 22.5

Would you mind telling me what IC50 value was observed for `VTKSSSWKDV` ? 40.4

Same thing, different sequence: `VTYNIKPVIV` 8.34

Ok, now `LIKTLSPAHL` 33.3

Another sequence to check: `ATQFNFNGHT` 23.3

Again, but for `LLNMRDLIVT` 33.2

Consider next the sequence `RQLTSNVDV` in the same way. 18.8

Same lookup for `VQLPKRGVRV` , please. 55.7

Same lookup for `SLKRFTHTT` , please. 42

Follow-up item: `VLQQNNSFII` 16.6

Okay, and `IMAFILGIII` ? 14.7

Likewise for `NLYISDYKM` ? 14.9

---

Assay target: HLA-A*02:01
Assay remarks: IEDB peptide-MHC binding, cellular MHC/competitive/fluorescence; bounds were set here for any values at or beyond the usual limits of such assays
Measurement context: source organism: Vaccinia virus WR
Experimental endpoint: IC50

YIESKAKQL = 9.62 µM
DVIKSISSI = 32 µM
SAKRITESIT = ≥ 70 µM
QTGINNVQSL = 48.1 µM
IQESFIRFT = 36.2 µM

Sample `HTNHSDISM` — what was its IC50? 12.1 µM

Also `DISDVKVLAA` , if possible. ≥ 70 µM

How about this sequence: `SADNHPKMI` 14.5 µM

// repeat for `STFSIGGVI` and report 23.5 µM

Same again, this time with `LIVRLNQCM` 19.8 µM

Would you mind doing `RQSSCKMAL` as well? 42.7 µM
